Target: panel of 442 kinases (Homo sapiens, UniProt P21709)
Construct: purchased Ambit Biosciences (scanMAXX KINOMEscan)
Sequence (P21709 26-976): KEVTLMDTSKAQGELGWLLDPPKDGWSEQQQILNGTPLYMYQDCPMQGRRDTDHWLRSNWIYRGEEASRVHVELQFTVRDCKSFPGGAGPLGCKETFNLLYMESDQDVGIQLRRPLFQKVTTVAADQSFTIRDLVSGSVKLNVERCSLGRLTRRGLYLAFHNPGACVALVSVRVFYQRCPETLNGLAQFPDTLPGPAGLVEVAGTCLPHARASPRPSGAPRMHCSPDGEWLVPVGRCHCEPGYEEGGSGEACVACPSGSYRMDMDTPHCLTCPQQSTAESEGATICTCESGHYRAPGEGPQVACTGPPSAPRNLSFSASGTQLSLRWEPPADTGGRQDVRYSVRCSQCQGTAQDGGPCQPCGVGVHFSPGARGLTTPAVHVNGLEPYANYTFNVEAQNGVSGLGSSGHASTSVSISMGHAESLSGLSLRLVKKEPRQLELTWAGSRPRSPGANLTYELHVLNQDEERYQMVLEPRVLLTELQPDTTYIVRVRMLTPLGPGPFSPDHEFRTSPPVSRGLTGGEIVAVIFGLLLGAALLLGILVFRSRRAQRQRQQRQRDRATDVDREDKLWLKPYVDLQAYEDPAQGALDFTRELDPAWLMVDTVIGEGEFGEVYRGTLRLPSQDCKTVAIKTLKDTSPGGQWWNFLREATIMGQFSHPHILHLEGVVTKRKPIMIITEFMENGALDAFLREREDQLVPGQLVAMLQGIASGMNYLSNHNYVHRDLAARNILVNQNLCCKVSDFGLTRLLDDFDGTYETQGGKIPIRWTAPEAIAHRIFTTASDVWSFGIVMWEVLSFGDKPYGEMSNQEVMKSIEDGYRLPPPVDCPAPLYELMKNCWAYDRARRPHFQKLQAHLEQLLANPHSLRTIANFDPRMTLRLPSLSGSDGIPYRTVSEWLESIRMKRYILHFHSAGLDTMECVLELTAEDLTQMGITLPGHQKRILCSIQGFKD
Test: biochemical
Type: binding
Conditions: EPHA1; 1 µM; read-out: % of control at 1 µM
property_measured: remaining activity at 1 µM (%)
Express your answer in %, writing the number without its unit.

# annotated cases, reported remaining activity at 1 µM shown
- line_notation: "COc1ncc(-c2ccc3nccc(-c4ccnnc4)c3c2)cc1NS(=O)(=O)c1ccc(F)cc1F"
  assay_target: "panel of 442 kinases (Homo sapiens, UniProt P21709)"
  unit_descriptor: "%"
  remaining activity at 1 µM: 97
- line_notation: "Nc1cc(C(F)(F)F)c(-c2cc(N3CCOCC3)nc(N3CCOCC3)n2)cn1"
  assay_target: "panel of 442 kinases (Homo sapiens, UniProt P21709)"
  unit_descriptor: "%"
  remaining activity at 1 µM: 90
- line_notation: "FC(F)c1nc2ccccc2n1-c1nc(N2CCOCC2)nc(N2CCOCC2)n1"
  assay_target: "panel of 442 kinases (Homo sapiens, UniProt P21709)"
  unit_descriptor: "%"
  remaining activity at 1 µM: 99

What measured remaining activity at 1 µM is associated with `Cn1c(=O)n(-c2ccc(C(C)(C)C#N)cc2)c2c3cc(-c4cnc5ccccc5c4)ccc3ncc21` on panel of 442 kinases (Homo sapiens, UniProt P21709)? 100

---

Below, each entry is listed with its recorded remaining activity at 1 µM.
Target: panel of 442 kinases (Homo sapiens)
Construct: purchased Ambit Biosciences (scanMAXX KINOMEscan)
Assay: biochemical
Format: binding
Details: kinase HIPK3; 1 µM; read-out: % of control at 1 µM
Express your answer in %, writing the number without its unit.

# annotated cases, reported remaining activity at 1 µM shown
- line_notation: "Cn1c(=O)n(-c2ccc(C(C)(C)C#N)cc2)c2c3cc(-c4cnc5ccccc5c4)ccc3ncc21"
  assay_target: "panel of 442 kinases (Homo sapiens)"
  remaining activity at 1 µM [%]: 94
- line_notation: "Nc1cc(C(F)(F)F)c(-c2cc(N3CCOCC3)nc(N3CCOCC3)n2)cn1"
  assay_target: "panel of 442 kinases (Homo sapiens)"
  remaining activity at 1 µM [%]: 92
- line_notation: "FC(F)c1nc2ccccc2n1-c1nc(N2CCOCC2)nc(N2CCOCC2)n1"
  assay_target: "panel of 442 kinases (Homo sapiens)"
  remaining activity at 1 µM [%]: 89

Value lookup for remaining activity at 1 µM; key = `COc1ncc(-c2ccc3nccc(-c4ccnnc4)c3c2)cc1NS(=O)(=O)c1ccc(F)cc1F` 88

---

Target: panel of 442 kinases (Homo sapiens)
Construct: purchased Ambit Biosciences (scanMAXX KINOMEscan)
Assay: biochemical
Assay type: binding
Conditions: CDK8; 1 µM; read-out: % of control at 1 µM
property_measured: remaining activity at 1 µM

# annotated cases, reported remaining activity at 1 µM shown
- line_notation: "Nc1cc(C(F)(F)F)c(-c2cc(N3CCOCC3)nc(N3CCOCC3)n2)cn1"
  assay_target: "panel of 442 kinases (Homo sapiens)"
  remaining activity at 1 µM: "100%"
- line_notation: "COc1ncc(-c2ccc3nccc(-c4ccnnc4)c3c2)cc1NS(=O)(=O)c1ccc(F)cc1F"
  assay_target: "panel of 442 kinases (Homo sapiens)"
  remaining activity at 1 µM: "70%"
- line_notation: "Cn1c(=O)n(-c2ccc(C(C)(C)C#N)cc2)c2c3cc(-c4cnc5ccccc5c4)ccc3ncc21"
  assay_target: "panel of 442 kinases (Homo sapiens)"
  remaining activity at 1 µM: "100%"

# evaluate next
Value lookup for remaining activity at 1 µM; key = `FC(F)c1nc2ccccc2n1-c1nc(N2CCOCC2)nc(N2CCOCC2)n1` 80%

---

Target: panel of 442 kinases (Homo sapiens, UniProt O00238)
Construct: purchased Ambit Biosciences (scanMAXX KINOMEscan)
Sequence (O00238 14-502): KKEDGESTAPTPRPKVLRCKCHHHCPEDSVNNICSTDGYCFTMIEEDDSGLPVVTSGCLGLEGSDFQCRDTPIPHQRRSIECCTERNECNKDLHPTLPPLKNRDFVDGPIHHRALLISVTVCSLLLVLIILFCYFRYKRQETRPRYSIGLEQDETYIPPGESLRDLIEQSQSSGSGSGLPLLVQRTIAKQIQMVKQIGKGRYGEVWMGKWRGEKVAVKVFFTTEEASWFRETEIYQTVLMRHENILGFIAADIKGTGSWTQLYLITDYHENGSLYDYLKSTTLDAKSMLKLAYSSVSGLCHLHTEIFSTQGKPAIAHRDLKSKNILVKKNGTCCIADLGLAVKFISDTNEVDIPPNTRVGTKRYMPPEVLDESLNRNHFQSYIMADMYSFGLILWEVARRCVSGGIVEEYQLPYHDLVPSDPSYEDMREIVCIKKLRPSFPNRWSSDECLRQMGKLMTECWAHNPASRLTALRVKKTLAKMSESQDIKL
Experiment: biochemical
Assay type: binding
Details: BMPR1B; 1 µM; read-out: % of control at 1 µM
Below, each entry is listed with its recorded remaining activity at 1 µM.
Express your answer in %, writing the number without its unit.

# annotated cases, reported remaining activity at 1 µM shown
- line_notation: "Nc1cc(C(F)(F)F)c(-c2cc(N3CCOCC3)nc(N3CCOCC3)n2)cn1"
  unit_descriptor: "%"
  recorded_measurement: 100
- line_notation: "Cn1c(=O)n(-c2ccc(C(C)(C)C#N)cc2)c2c3cc(-c4cnc5ccccc5c4)ccc3ncc21"
  unit_descriptor: "%"
  recorded_measurement: 91
- line_notation: "COc1ncc(-c2ccc3nccc(-c4ccnnc4)c3c2)cc1NS(=O)(=O)c1ccc(F)cc1F"
  unit_descriptor: "%"
  recorded_measurement: 87

# evaluate next
Value lookup for remaining activity at 1 µM; key = `FC(F)c1nc2ccccc2n1-c1nc(N2CCOCC2)nc(N2CCOCC2)n1` 94

---

Target: panel of 442 kinases (Homo sapiens, UniProt P36897)
Construct: purchased Ambit Biosciences (scanMAXX KINOMEscan)
Sequence (P36897 34-503): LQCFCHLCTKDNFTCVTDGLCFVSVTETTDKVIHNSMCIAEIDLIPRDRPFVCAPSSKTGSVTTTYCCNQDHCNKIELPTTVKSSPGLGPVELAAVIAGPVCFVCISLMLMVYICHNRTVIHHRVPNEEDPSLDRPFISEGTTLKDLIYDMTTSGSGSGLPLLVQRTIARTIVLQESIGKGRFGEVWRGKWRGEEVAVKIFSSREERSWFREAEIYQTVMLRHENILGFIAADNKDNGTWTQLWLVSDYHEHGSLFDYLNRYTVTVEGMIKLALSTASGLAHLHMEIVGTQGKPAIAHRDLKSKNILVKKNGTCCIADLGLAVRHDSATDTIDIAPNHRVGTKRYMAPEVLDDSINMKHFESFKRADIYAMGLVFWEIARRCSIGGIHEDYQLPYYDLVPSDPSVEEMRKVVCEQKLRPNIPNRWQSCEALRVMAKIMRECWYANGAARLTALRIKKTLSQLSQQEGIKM
Test: biochemical
Type: binding
Conditions: kinase TGFBR1; 1 µM; read-out: TGFBR1 (% of control at 1 µM)
Below, each entry is listed with its recorded remaining activity at 1 µM.
# do not omit the unit; it follows the number

# annotated cases, reported remaining activity at 1 µM shown
- compound: "Nc1cc(C(F)(F)F)c(-c2cc(N3CCOCC3)nc(N3CCOCC3)n2)cn1 [Buparlisib]"
  assay_target: "panel of 442 kinases (Homo sapiens, UniProt P36897)"
  remaining activity at 1 µM: "100%"
- compound: "COc1ncc(-c2ccc3nccc(-c4ccnnc4)c3c2)cc1NS(=O)(=O)c1ccc(F)cc1F [Omipalisib]"
  assay_target: "panel of 442 kinases (Homo sapiens, UniProt P36897)"
  remaining activity at 1 µM: "100%"
- compound: "FC(F)c1nc2ccccc2n1-c1nc(N2CCOCC2)nc(N2CCOCC2)n1 [ZSTK474]"
  assay_target: "panel of 442 kinases (Homo sapiens, UniProt P36897)"
  remaining activity at 1 µM: "79%"

# evaluate next
Value lookup for remaining activity at 1 µM; key = Cn1c(=O)n(-c2ccc(C(C)(C)C#N)cc2)c2c3cc(-c4cnc5ccccc5c4)ccc3ncc21 [Dactolisib] 89%

---

Biological target: panel of 442 kinases (Homo sapiens, UniProt P51956)
Construct: purchased Ambit Biosciences (scanMAXX KINOMEscan)
Sequence (P51956 whole entry): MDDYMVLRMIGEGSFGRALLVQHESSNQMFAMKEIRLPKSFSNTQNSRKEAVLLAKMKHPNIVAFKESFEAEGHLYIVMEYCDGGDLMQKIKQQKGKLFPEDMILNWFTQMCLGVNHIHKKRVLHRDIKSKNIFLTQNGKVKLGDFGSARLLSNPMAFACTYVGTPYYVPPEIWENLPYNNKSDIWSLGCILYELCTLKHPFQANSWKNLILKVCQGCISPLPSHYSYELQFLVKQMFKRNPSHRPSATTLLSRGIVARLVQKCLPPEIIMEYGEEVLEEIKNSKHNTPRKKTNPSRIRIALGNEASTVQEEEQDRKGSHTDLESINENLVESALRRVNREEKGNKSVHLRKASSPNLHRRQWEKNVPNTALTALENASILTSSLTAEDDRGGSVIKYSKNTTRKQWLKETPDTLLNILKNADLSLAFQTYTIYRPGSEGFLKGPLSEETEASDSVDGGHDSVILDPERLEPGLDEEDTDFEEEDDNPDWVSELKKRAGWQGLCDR
Test: biochemical
Format: binding
Details: kinase NEK3; 1 µM; read-out: % of control at 1 µM
property_measured: remaining activity at 1 µM

# annotated cases, reported remaining activity at 1 µM shown
- line_notation: "COc1ncc(-c2ccc3nccc(-c4ccnnc4)c3c2)cc1NS(=O)(=O)c1ccc(F)cc1F"
  property_measured: "remaining activity at 1 µM"
  recorded_measurement: "93%"
- line_notation: "Nc1cc(C(F)(F)F)c(-c2cc(N3CCOCC3)nc(N3CCOCC3)n2)cn1"
  property_measured: "remaining activity at 1 µM"
  recorded_measurement: "99%"
- line_notation: "FC(F)c1nc2ccccc2n1-c1nc(N2CCOCC2)nc(N2CCOCC2)n1"
  property_measured: "remaining activity at 1 µM"
  recorded_measurement: "73%"

# evaluate next
Value lookup for remaining activity at 1 µM; key = `Cn1c(=O)n(-c2ccc(C(C)(C)C#N)cc2)c2c3cc(-c4cnc5ccccc5c4)ccc3ncc21` 78%

Where do these numbers come from? They come from paper PMC5564600.
